Assay: MTT assay
Type: cell-based
Conditions: human, HepG2 cells
measurementName: CC50 at 24 h

INSERT INTO results (structurenotation, measurementname, valueobserved) VALUES
  ('CCCCCCCCCCNc1cc(N)nc(N)n1', 'CC50 at 24 h', '11.7 µM'),
  ('CCCCCCNc1cc(N)nc(N)n1', 'CC50 at 24 h', '160 µM'),
  ('CCCCCNc1cc(N)nc(N)n1', 'CC50 at 24 h', '341 µM');

In: So what does the record say about CC50 at 24 h for CCCNc1cc(N)nc(N)n1 ?
Out: > 600 µM

Value source: paper PMC10451377
